experiment notes: Miscibility test with common oilfield solvents (Tables 3-5)
Type: physicochemical
Parameters: key: S = separate; M = miscible
condition summary: 50/50 volume per volume

compound	Solubility in xylene
COC(=O)C(C)CCC(=O)N(C)C (stereo not shown) [Polarclean]	M
CC1(C)OCC(CO)O1 (stereo not shown)	M
CCCCOCC(C)O (stereo not shown)	M
CC(C)O	M

====

experiment notes: Miscibility test with common oilfield solvents (Tables 3-5)
Format: physicochemical
Set-up: key: S = separate; M = miscible
condition summary: 50/50 volume per volume
Experimental: For each test solvent, it is blended with a common solvent at 50/50 volume per volume ratio. It is shaken vigorously for about a minute and let stand for about 5 mins. A complete miscibility is recorded if there is no formation of layers. Formation of turbid mixture or multiple layers is recorded as immiscible or separate.

compound	Solubility in Water
COC(=O)C(C)CCC(=O)N(C)C (stereo not shown) [Polarclean]	M
CC1(C)OCC(CO)O1 (stereo not shown) [Augeo SL 191]	M
CCCCOCC(C)O (stereo not shown) [Dowanol, propylene glycol n-butyl ether]	S
CC(C)O [IPA, isopropyl alcohol]	M
